The values you see were collected from PubChem BioAssay (EPA / NIEHS).

- experimentalSystem: Hypoxia-inducible factor 1-alpha (Homo sapiens) (UniProt Q16665)
- Sequence (Q16665 whole entry, looked up): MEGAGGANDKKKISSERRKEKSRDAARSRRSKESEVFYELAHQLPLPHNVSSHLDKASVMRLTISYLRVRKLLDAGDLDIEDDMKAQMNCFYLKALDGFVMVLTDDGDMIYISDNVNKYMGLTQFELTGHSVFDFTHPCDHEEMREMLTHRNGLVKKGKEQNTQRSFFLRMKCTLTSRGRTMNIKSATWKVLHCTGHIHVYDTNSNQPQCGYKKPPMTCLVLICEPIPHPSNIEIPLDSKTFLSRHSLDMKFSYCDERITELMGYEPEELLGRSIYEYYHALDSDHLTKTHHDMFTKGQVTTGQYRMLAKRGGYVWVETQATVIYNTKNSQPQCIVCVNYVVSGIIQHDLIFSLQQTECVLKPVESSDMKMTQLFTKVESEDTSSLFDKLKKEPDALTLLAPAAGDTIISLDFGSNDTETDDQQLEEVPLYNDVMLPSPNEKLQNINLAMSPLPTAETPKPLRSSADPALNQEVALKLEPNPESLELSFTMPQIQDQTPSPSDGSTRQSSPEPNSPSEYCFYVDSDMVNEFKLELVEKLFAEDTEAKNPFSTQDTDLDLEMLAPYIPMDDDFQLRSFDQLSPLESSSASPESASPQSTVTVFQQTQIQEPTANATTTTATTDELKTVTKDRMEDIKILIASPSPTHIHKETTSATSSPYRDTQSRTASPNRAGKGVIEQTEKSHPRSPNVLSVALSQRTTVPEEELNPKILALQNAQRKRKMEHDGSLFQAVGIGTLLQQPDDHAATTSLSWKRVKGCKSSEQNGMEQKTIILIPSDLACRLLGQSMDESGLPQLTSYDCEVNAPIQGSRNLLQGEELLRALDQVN
- procedureSummary: ATG_HIF1a_CIS: Attagene CIS-FACTORIAL HepG2 Assay for human Hypoxia Inducible Factor 1 (HIF1A) (AID 2282951)
- conditionInfo: HepG2 Attagene cis-factorial HIF1a reporter transcription; actives raise or lower the signal
Activity calls are given as the source filed them. The calls were made as follows: active = hit-call score of the fitted dose curve at least 0.9, where 1 is the maximum; inactive = score below 0.9.
Classes used: True = active, False = inactive

>  <compoundStructure>
c1ccc2c(c1)ccc1ccccc12

>  <label>
True

$$$$
>  <compoundStructure>
O=C(O)c1ccccc1C(c1ccc(O)cc1)c1ccc(O)cc1

>  <label>
False

$$$$
>  <compoundStructure>
CCCCOCCO

>  <label>
False

$$$$
>  <compoundStructure>
Cc1oc(-c2ccccc2)nc1CCOc1ccc(C[C@H](Nc2ccccc2C(=O)c2ccccc2)C(=O)O)cc1

>  <label>
True

$$$$

====

- Read-out: Monocyte Chemoattractant Protein-1 (MCP1), CCL2 (gene 6347)
- procedureSummary: BSK_3C_MCP1: BioMAP Diversity Plus: 3C Assay for Monocyte Chemoattractant Protein-1 (MCP1) Biomarker Activity (AID 2283017)
- conditionInfo: primary human endothelial cells (HUVEC); actives raise or lower the signal
Calls of active or inactive are those of the source. Rule for the calls: active = hit-call score of the fitted dose curve at least 0.9, where 1 is the maximum; inactive = score below 0.9.

>  <compound>
CCCCOCCO

>  <AC50>
inactive

$$$$
>  <compound>
CC(C)(C)c1cccc(C(C)(C)C)c1O

>  <AC50>
inactive

$$$$
>  <compound>
Oc1cc2ccccc2c2ccccc12

>  <AC50>
10 µM (active)

$$$$
>  <compound>
CN(C)C=O

>  <AC50>
inactive

$$$$
>  <compound>
CCCCCCCCOC(=O)CCCCCCCCC(=O)OCCCCCCCC

>  <AC50>
inactive

$$$$
>  <compound>
CCc1nn(C2CCCCC2)c2cc(C3(C#N)CCC(C(=O)O)CC3)ccc12 (stereo not drawn)

>  <AC50>
10.6 µM (active)

$$$$
>  <compound>
CC[C@H](C)[C@@H](C(=O)O)n1sc2ccccc2c1=O

>  <AC50>
inactive

$$$$
>  <compound>
CC1=C(/C=C/C(C)=C/C=C/C(C)=C/C(=O)O)C(C)(C)CCC1

>  <AC50>
inactive

$$$$
>  <compound>
CCCCCCCC(=O)O

>  <AC50>
inactive

$$$$
>  <compound>
CCCCCCCCCCCCc1ccccc1S(=O)(=O)O

>  <AC50>
inactive

$$$$
>  <compound>
OC1CCCCC1

>  <AC50>
inactive

$$$$
>  <compound>
Cc1oc(-c2ccccc2)nc1CCOc1ccc(C[C@H](Nc2ccccc2C(=O)c2ccccc2)C(=O)O)cc1

>  <AC50>
32.5 µM (active)

$$$$
>  <compound>
CCOC(=O)CC(O)(CC(=O)OCC)C(=O)OCC

>  <AC50>
inactive

$$$$
>  <compound>
CCCCC(CC)COC(=O)CCCCC(=O)OCC(CC)CCCC (stereo not drawn)

>  <AC50>
inactive

$$$$
>  <compound>
O=C(O)c1ccccc1C(c1ccc(O)cc1)c1ccc(O)cc1

>  <AC50>
inactive

$$$$
>  <compound>
CCC(C)(C)C1CCC(O)CC1 (stereo not drawn)

>  <AC50>
inactive

$$$$
>  <compound>
NC(=O)N1C(=O)C(C(=O)c2cc(Cl)cs2)c2cc(F)c(Cl)cc21 (stereo not drawn)

>  <AC50>
5.16 µM (active)

$$$$
>  <compound>
CCCCC(CC)COC(=O)CCCCC(=O)OCc1ccccc1 (stereo not drawn)

>  <AC50>
inactive

$$$$
>  <compound>
N#C[C@@H]1CC(F)(F)CN1C(=O)CNC1CC2CCC(C1)N2c1ncccn1 (stereo partly drawn)

>  <AC50>
4.85 µM (active)

$$$$
>  <compound>
CC(C)(C)CC(C)(C)c1ccc(O)c(-n2nc3ccccc3n2)c1

>  <AC50>
inactive

$$$$
>  <compound>
CCCCCCCCCCCCN1CCCC1=O

>  <AC50>
32.7 µM (active)

$$$$
>  <compound>
CC(C)(C)c1ccc(O)c(C(C)(C)C)c1

>  <AC50>
11.7 µM (active)

$$$$
>  <compound>
O=c1c(-c2ccc(O)cc2)coc2cc(O)ccc12

>  <AC50>
inactive

$$$$
>  <compound>
CCC(=C(c1ccc(O)cc1)c1ccc(OCCN(C)C)cc1)c1ccccc1

>  <AC50>
8.6 µM (active)

$$$$
>  <compound>
ClC1=C(Cl)C(Cl)(Cl)C(Cl)=C1Cl

>  <AC50>
7.92 µM (active)

$$$$
>  <compound>
COc1ccc([N+](=O)[O-])cc1N

>  <AC50>
inactive

$$$$
>  <compound>
Nc1cccc2c(N)cccc12

>  <AC50>
inactive

$$$$
>  <compound>
CCCCCCCCC(=O)O

>  <AC50>
inactive

$$$$
>  <compound>
NC(=O)N(O)[C@@H]1C=C[C@H](Oc2cccc(Oc3ccc(F)cc3)c2)C1

>  <AC50>
inactive

$$$$
>  <compound>
CC(=O)CC(C)(C)O

>  <AC50>
inactive

$$$$
>  <compound>
CCCCCCC(=O)O

>  <AC50>
inactive

$$$$
>  <compound>
c1ccc2cc3c(ccc4ccccc43)cc2c1

>  <AC50>
inactive

$$$$
>  <compound>
CC(C)(C)c1cc(C(C)(C)C)c(O)c(C(C)(C)C)c1

>  <AC50>
inactive

$$$$

====

- procedureSummary: ATG_AP_2_CIS: Attagene CIS-FACTORIAL HepG2 Assay for human Activator Protein 2 (AP-2) (AID 2282932)
- conditionInfo: HepG2 AP-2 cis-reporter, Attagene transcription factor profiling; actives raise or lower the signal
Activity calls are given as the source filed them. Rule for the calls: active = hit-call score of the fitted dose curve at least 0.9, where 1 is the maximum; inactive = score below 0.9.
Outcome codes: T (active), F (inactive)

>  <compound>
CCCCCCCCCCCCCC[N+](C)(C)C

>  <label>
F

$$$$
>  <compound>
C[C@@H]1C[C@H]2[C@@H]3CCC4=CC(=O)C=C[C@]4(C)[C@@]3(F)[C@@H](O)C[C@]2(C)[C@@]1(O)C(=O)COP(=O)(O)O

>  <label>
F

$$$$
>  <compound>
CCC(C)(C)C1CCC(O)CC1 (stereo unspecified)

>  <label>
F

$$$$
>  <compound>
CCCOc1sc(C(=O)N2CCC(c3cc(CN)ccc3F)CC2)c(C)c1Br

>  <label>
F

$$$$
>  <compound>
CCN(CC)CCNc1ccc(CNC=O)c2sc3ccc(OC)cc3c(=O)c12

>  <label>
T

$$$$
>  <compound>
O=C(/C=C/c1ccc(O)cc1)CC(=O)/C=C/c1ccc(O)cc1

>  <label>
T

$$$$
>  <compound>
O=C(OCCOCCOC(=O)c1ccccc1)c1ccccc1

>  <label>
F

$$$$
>  <compound>
CC(C)CCCCCCOC(=O)CCCCC(=O)OCCCCCCC(C)C

>  <label>
F

$$$$
>  <compound>
CCCCCCC(=O)O

>  <label>
F

$$$$
>  <compound>
CCCCCCCC(=O)O

>  <label>
F

$$$$
>  <compound>
CCCCCCCCOC(=O)CCCCCCCCC(=O)OCCCCCCCC

>  <label>
F

$$$$
>  <compound>
CCc1nn(C2CCCCC2)c2cc(C3(C#N)CCC(C(=O)O)CC3)ccc12 (stereo unspecified)

>  <label>
F

$$$$
>  <compound>
CC(C)(C)c1cccc(C(C)(C)C)c1O

>  <label>
F

$$$$
>  <compound>
CC[C@H](c1ccc(O)cc1)[C@@H](CC)c1ccc(O)cc1

>  <label>
F

$$$$
>  <compound>
CN1CCN(c2ccccc2/C=C2\SCCN(c3ccc(Cl)c(Cl)c3)C2=O)CC1

>  <label>
F

$$$$
>  <compound>
c1ccc2c(c1)ccc1ccccc12

>  <label>
F

$$$$
>  <compound>
O=C1OC2(c3ccccc31)c1cc(Br)c(O)c(Br)c1Oc1c2cc(Br)c(O)c1Br

>  <label>
F

$$$$
>  <compound>
CC(=O)NC1(c2cccc(F)c2)CCN(CC[C@@]2(c3ccc(Cl)c(Cl)c3)CN(c3ccccc3)C(=O)CO2)CC1

>  <label>
F

$$$$
>  <compound>
CC(=O)CC(C)(C)O

>  <label>
F

$$$$
>  <compound>
C#C[C@]1(O)CC[C@H]2[C@@H]3CCC4=CC(=O)CC[C@@H]4[C@H]3CC[C@@]21C

>  <label>
F

$$$$
>  <compound>
CC(C)(C)c1ccc(O)c(C(C)(C)C)c1

>  <label>
F

$$$$
>  <compound>
COc1cc(CCC(=O)CC(=O)CCc2ccc(O)c(OC)c2)ccc1O

>  <label>
F

$$$$
>  <compound>
COCC(C)O (stereo unspecified)

>  <label>
F

$$$$
>  <compound>
CC(O)C(=O)O (stereo unspecified)

>  <label>
F

$$$$
>  <compound>
Nc1cccc2c(N)cccc12

>  <label>
F

$$$$
>  <compound>
CCCCOCCO

>  <label>
F

$$$$
